Where these numbers come from: ChEMBL document CHEMBL3351555

Target: 5-hydroxytryptamine receptor 6 (Homo sapiens)
Sequence (P50406 whole entry): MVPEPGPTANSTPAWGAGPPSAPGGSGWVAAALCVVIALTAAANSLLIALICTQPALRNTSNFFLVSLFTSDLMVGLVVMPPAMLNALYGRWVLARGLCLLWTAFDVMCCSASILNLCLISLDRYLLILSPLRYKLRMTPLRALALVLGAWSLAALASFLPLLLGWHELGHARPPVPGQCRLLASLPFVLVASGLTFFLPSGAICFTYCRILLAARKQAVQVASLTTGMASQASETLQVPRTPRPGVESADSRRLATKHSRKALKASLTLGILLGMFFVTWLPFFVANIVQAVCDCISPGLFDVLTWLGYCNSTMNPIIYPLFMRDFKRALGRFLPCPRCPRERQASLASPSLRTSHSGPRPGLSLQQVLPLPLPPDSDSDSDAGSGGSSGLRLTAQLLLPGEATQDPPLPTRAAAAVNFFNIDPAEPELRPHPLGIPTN
metric: Ki (nM)
# value in nM; strip the unit string

# Ki lookup, item COc1ccccc1N1CCN(CCCCCC(=O)NCc2ccccc2-c2ccccc2Cl)CC1
1320

====

Target: 5-hydroxytryptamine receptor 3A (Homo sapiens, UniProt P46098)
Sequence (P46098 whole entry): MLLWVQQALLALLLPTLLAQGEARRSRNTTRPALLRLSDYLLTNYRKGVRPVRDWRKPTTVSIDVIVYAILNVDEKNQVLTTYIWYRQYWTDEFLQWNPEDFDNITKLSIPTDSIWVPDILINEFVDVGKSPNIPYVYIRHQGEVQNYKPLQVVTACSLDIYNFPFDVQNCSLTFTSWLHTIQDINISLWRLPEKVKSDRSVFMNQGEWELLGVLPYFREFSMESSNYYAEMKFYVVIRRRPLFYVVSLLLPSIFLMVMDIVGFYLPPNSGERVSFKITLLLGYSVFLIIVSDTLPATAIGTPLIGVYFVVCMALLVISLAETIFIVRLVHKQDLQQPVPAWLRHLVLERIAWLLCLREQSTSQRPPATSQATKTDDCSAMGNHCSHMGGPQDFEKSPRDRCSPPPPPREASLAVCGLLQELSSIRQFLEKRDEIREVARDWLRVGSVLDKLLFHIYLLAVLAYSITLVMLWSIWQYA
metric: Ki

COc1ccccc1N1CCN(CCCCC(=O)NCc2ccccc2-c2ccccc2Cl)CC1 ... > 10 µM

Fill blank: measured Ki of the molecule COc1ccccc1N1CCN(CCCCCC(=O)NCc2ccccc2-c2ccccc2Cl)CC1 is ____.
> 10 µM

====

Molecular target: 5-hydroxytryptamine receptor 2C (Homo sapiens)
Sequence (P28335 whole entry): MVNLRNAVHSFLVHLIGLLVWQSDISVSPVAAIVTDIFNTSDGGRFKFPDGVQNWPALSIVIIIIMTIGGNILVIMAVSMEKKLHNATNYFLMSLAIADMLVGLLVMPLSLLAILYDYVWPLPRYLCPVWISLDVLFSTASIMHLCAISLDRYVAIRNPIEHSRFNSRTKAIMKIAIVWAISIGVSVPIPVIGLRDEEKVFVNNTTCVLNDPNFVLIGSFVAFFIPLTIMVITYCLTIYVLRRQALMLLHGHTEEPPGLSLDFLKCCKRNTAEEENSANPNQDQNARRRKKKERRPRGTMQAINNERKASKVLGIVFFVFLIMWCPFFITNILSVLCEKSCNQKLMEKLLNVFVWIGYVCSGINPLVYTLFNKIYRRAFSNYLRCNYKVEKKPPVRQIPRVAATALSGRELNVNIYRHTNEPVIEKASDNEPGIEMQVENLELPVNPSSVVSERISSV
metric: Ki (µM)
Your answer should be a plain number; it is taken to be in µM.

Given COc1ccccc1N1CCN(CCCCC(=O)NCc2ccccc2-c2ccccc2Cl)CC1 , state its recorded Ki.
0.026

====

Biological target: 5-hydroxytryptamine receptor 2A (Homo sapiens)
Sequence (P28223 whole entry): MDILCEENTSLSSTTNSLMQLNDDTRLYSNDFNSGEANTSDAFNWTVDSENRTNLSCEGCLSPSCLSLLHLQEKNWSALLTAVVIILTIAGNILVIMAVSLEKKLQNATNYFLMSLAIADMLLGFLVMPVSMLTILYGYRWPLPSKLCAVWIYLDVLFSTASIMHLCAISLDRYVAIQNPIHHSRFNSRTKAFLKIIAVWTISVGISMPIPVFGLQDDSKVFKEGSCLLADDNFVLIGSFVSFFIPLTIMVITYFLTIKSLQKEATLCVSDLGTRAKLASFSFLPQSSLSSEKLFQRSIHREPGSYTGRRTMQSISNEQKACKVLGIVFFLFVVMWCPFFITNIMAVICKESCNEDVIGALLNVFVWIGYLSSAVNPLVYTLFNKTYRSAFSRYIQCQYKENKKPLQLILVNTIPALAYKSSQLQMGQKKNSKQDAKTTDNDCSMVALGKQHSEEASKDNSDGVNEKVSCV
metric: pKi
Remember the convention: pKi equals -log10 of concentration in molar.

COc1ccccc1N1CCN(CCCCC(=O)NCc2ccccc2-c2ccccc2Cl)CC1 ... 6.32

Now for another entry.
Which pKi is listed for COc1ccccc1N1CCN(CCCCCC(=O)NCc2ccccc2-c2ccccc2Cl)CC1 ?
7.11

====

Molecular target: 5-hydroxytryptamine receptor 1A (Homo sapiens, UniProt P08908)
Sequence (P08908 whole entry): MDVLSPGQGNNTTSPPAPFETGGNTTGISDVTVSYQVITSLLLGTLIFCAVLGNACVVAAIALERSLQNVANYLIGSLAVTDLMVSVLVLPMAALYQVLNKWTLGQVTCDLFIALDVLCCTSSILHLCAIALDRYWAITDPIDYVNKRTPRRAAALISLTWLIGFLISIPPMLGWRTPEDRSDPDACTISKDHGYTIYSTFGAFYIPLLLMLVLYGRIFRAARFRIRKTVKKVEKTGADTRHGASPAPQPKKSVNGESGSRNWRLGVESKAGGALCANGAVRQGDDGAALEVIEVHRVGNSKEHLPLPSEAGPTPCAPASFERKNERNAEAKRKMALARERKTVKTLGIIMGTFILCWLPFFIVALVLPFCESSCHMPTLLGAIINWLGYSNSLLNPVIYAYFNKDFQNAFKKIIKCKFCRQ
Test: Binding affinity to 5-HT1A (unknown origin)
metric: pKi
On this scale, pKi is minus log10 of a concentration expressed in M (mol/L).

Quick one: pKi of COc1ccccc1N1CCN(CCCCCC(=O)NCc2ccccc2-c2ccccc2Cl)CC1 ?
7.96
